target: VLP2 (virus-like particles, capsid protein particles of AAV serotype 2) (AAV serotype 2 (AAV2)) (UniProt P03135); test: ELISA on immobilised VLP2 (culture supernatant, anti-His detection); A450 after 1:1 0.5 M NaOH, 30 min, 30°C divided by A450 untreated
Sequence (P03135 whole entry): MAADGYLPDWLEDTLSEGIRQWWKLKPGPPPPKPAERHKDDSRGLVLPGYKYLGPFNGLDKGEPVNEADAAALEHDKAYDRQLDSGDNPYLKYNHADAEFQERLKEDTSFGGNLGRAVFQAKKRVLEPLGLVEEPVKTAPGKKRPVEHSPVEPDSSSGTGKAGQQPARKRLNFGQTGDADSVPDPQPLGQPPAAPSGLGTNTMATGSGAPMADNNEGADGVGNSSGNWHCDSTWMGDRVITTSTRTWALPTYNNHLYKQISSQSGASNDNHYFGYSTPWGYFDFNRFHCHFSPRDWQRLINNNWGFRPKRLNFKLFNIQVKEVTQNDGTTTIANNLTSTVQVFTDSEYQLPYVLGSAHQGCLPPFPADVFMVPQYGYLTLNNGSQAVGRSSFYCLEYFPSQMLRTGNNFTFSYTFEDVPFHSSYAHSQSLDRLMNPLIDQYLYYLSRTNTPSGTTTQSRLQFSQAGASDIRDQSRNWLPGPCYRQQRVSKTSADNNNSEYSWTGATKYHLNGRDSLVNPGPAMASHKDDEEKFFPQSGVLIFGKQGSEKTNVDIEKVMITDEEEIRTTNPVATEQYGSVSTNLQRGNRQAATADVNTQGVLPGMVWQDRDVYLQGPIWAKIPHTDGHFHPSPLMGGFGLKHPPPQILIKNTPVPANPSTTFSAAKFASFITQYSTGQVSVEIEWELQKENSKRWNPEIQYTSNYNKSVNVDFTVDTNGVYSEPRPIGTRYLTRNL
Known Remaining activity [%] of a selection of binders
MEASUREMENT NAME: Remaining activity [%] (%)

AVR21 with E(V)335A, V394I (receptor) MGSAGESDQITLPKHEAQLNVYVLLAPPKGEASTYDWQLITHPRDYSGEMEGEHSQILKLSNLTPGLYEYRAVVEGQNAHSEGYINVTVEPEPRKNRPPIAIVSPQFQEISLPTTSTVIDGSQSTDDDKIVQYHWEELKGPLREEKISEDTAILKLSQLVPGNYTFRLTVVDTDGATDSTTADLTVNKAVDHHHHHH	37.3
AVR21 with L321Q (receptor) MGSAGESDQITQPKHEAQLNVYVLLVPPKGEASTYDWQLITHPRDYSGEMEGEHSQILKLSNLTPGLYEYRAVVEGQNAHSEGYVNVTVEPEPRKNRPPIAIVSPQFQEISLPTTSTVIDGSQSTDDDKIVQYHWEELKGPLREEKISEDTAILKLSQLVPGNYTFRLTVVDTDGATDSTTADLTVNKAVDHHHHHH	34.2
AVR21 with K338R, A461P (receptor) MGSAGESDQITLPKHEAQLNVYVLLVPPRGEASTYDWQLITHPRDYSGEMEGEHSQILKLSNLTPGLYEYRAVVEGQNAHSEGYVNVTVEPEPRKNRPPIAIVSPQFQEISLPTTSTVIDGSQSTDDDKIVQYHWEELKGPLREEKISEDTPILKLSQLVPGNYTFRLTVVDTDGATDSTTADLTVNKAVDHHHHHH	36.4

Data origin: patent EP4717706A1
